Values compiled from patent US20190322750A1.

target: M2; experiment: ELISA on coated antigen, column M2
valueKind: absorbance at 490 nm
# output: bare number, no unit

Check out these entries, answers already filled in.
binder: PDL1-31E6 (antibody, V domains shown, Only FR/CDR pieces are tied to the clone) VH: QVQLVQSGAEVKKPGSSVKVSCKASGGTFSSYAISWVRQAPGQGLEWMGGIIPIFGTANYAQKFQGRVTITADESTSTAYMELSSLRSEDTAVYYCARGGRSFGAFDSWGQGALVTVSS VL: DIQMTQSPATLSLSPGERATLSCTASQSISSYLAWYQQKPGQAPRLLIYDSSNRATGIPARFSGSGSGTAFTLTISSLEPEDFAVYFCQQRGQWPLTFGGGTKVDIK
valueKind: absorbance at 490 nm
reportedResult: 1.8
--
binder: PDL1-31B7 (antibody, V domains shown, Only FR/CDR pieces are tied to the clone) VH: QVQLVESGAEVKKPGSSVKVSCKASGGTFSSYAISWVRQAPGQGLEWMGRIIPILGIANYAQKFQGRVTITADKSTSTAYMELSSLRSEDTAVYYCARASSGYSVGAFDIWGQGTMVTVSS VL: QLVLTQPPSVSAPPGQKVTISCSGSSSNIGNNYVSWYQQLPGTAPKLLIYDNNERPSGIPDRFSASKSGTSATLGISGLQTGDEADYYCGTWDSSLSAGVFGGGTKLTVL
valueKind: absorbance at 490 nm
reportedResult: 2.7
--
binder: PDL1-31D9 (antibody, V domains shown, Only FR/CDR pieces are tied to the clone) VH: QMQLVESGGGLVQPGGSLRLSCSASGFTFSSYVMHWVRQAPGKGLEYVSAISSNGGSTYYADSVKGRFTISRDNSKNTLYLQMSSLRSEDTAVYYCAREHFSTYSYGVDVWGPGTTVTVSS VL: DIVMTQTPLSLPVTPGEPASISCRSSQSLLDSDDGNTYLDWYLQKPGQSPQLLIYMISFRASGVPDRFSGSGSGTDFTLKISRVEAEDSGIYYCMQRVEFPYTFGQGTKLEIK
valueKind: absorbance at 490 nm
reportedResult: 1.7

Kindly review the next binder as well.
## Task May I ask what absorbance at 490 nm has been recorded for PDL1-30B1 (antibody, V domains shown, Only FR/CDR pieces are tied to the clone) VH: QVQLVESGGGVVQPGRSLRLSCAASGFTFSSYAMHWVRQGPGKGLEWVAVISYDGSNEFYADSVKGRFTISRDNSKNTLYLQMNSLRAEDTAVYYCARGDYNGVYMDVWGQGTTVTVSS VL: DIVMTQTPLSLSVTPGQPASISCKSSQSLLHSDGKTYLYWYLQKPGQSPQLLIYEVSKRFSGVPDRFSGSGSGTDFTLKIGRVEAEDVGVYYCMQGLHLPYTFGQGTKLEIK ?
## Result 2.5
